These data points were gathered from PubChem BioAssay (NCI).

- Tested on: SK-OV-3 ovarian
- METHOD: NCI-60 one-dose screen, 48 h (100 = growth as untreated, 0 = no growth, -100 = all killed)
- TEST_SETTINGS: 10 µM unless noted
The panel holds about 83,000 compounds, 20% with a hit somewhere; the sample as a whole holds those more often.
MEASURED_PROPERTY: growth (%)
Quick note: give the figure in %, leave out the unit.

C/C(=C(/c1ccc(Cl)cc1)c1ccc(OCCN)cc1)c1ccc(C)cc1: 120
O=C(N/N=C/c1ccc([N+](=O)[O-])s1)c1[nH]c2ccc(Br)cc2c1-c1ccccc1: 45.8
CNC(=O)c1cc(-c2ccc(NC(=O)Nc3ccc(N4CCN(C)CC4)c(C(F)(F)F)c3)cc2)nc2cccnc12: 59.7
COc1ccc2[nH]cc(-c3cc(N)n4nc(-c5c[nH]c6ccc(OC)cc56)cc4n3)c2c1: 144
CN1CCN(Cc2ccc(NC(=O)c3cncc(C#Cc4cnc5[nH]ncc5c4)c3)cc2C(F)(F)F)CC1: 2.28

Item: C#C[C@]1(O)CC[C@H]2[C@@H]3CC=C4c5sc(-c6ccc(F)cn6)nc5CC[C@]4(C)[C@H]3CC[C@@]21C | System: SK-OV-3 ovarian | growth: 21.2

Item: C=CCn1c(SCC(=O)c2ccccc2)nnc1-c1c[nH]c2ccccc12 | System: SK-OV-3 ovarian | growth: 120

Item: COC(=O)C1CCCN(S(=O)(=O)/N=C2\NC(=O)NC2=C(Cl)Cl)C1 (centres undefined) | System: SK-OV-3 ovarian | growth: 106

Item: C#Cc1nc(C2=C(C)C(OC(=O)CCC(=O)O)CC2)cs1 (centres undefined) | System: SK-OV-3 ovarian | growth: 125

Item: O=C1Nc2ccc(Cl)cc2/C1=C/c1ccc(OCC(=O)c2ccc(Br)cc2)cc1 | System: SK-OV-3 ovarian | growth: 79.9

Item: O=C(CSc1nnc(-c2ccc3nc(-c4ccc(Cl)cc4)[nH]c3c2)o1)Nc1ccc(C(=O)/C=C/c2ccc(Cl)cc2)cc1 | System: SK-OV-3 ovarian | growth: 110

Item: O=C(CN1C(=O)/C(=C/c2ccccc2)SC1=S)N1CCOCC1 | System: SK-OV-3 ovarian | growth: 95.4

Item: COc1ccc(N/N=C/c2c(-c3ccc(S(C)(=O)=O)cc3)nc3ccccn23)cc1 | System: SK-OV-3 ovarian | growth: 62.2

Item: c1ccc2c(NCCCN3CCOCC3)c3oc4ccccc4c3nc2c1 | System: SK-OV-3 ovarian | growth: -9.67

====

- Test system: NCI-H522 lung
- METHOD: NCI-60 one-dose screen, 48 h
- TEST_SETTINGS: 10 µM unless noted
About 83,000 compounds went through this panel and 20% of them were active in at least one assay; those are over-represented in the sample as a whole. Active and inactive are the calls of the source. The calls were made as follows: active = growth percent below 10; inactive = the rest.
API: response.call in true (1) for active, false (0) for inactive

The examples below pair each entry with its known result.
COc1ccc(-n2c(SCC(=O)Nc3ccc(-c4nc5ccccc5[nH]4)cc3)nc3ccccc3c2=O)cc1: true (1)
CCOC(=O)c1c(Nc2ccccc2)nn2c(N)c(C#N)c(-c3ccc(F)cc3)nc12: false (0)
O=C(N/N=C/c1ccc(Br)s1)c1[nH]c2ccc(Br)cc2c1-c1ccccc1: true (1)
COc1cc2nc(-c3ccc(C(F)(F)F)cc3)cc(OCCCNCC3CCCO3)c2cc1OC (stereo not given): false (0)

# fetch the recorded call for C=CCn1c(SCC(=O)c2ccccc2)nnc1-c1c[nH]c2ccccc12 here
false (0)
